Hey, just so you know, these numbers are from ChEMBL document CHEMBL5346964.

Assay: Plasma clearance in BALB/c mouse at 1 mg/kg, iv measured upto 24 hrs by LC/MS-MS analysis
Assay type: ADME, organism-based
assay-endpoint: clearance

Can you look up the measured clearance of Cc1ccc([C@@H]2C[C@H](CN[C@H](C)c3cccc4ccccc34)Oc3ccccc32)cc1C(=O)O.Cl for me? 2.6 mL/min/kg

----------
Experiment: Protein binding in dog plasma incubated for 16 hrs under shaking condition by rapid equilibrium dialysis based LC-MS/MS method
Type: ADME, cell-free, Canis lupus familiaris
Settings: read-out: PPB
assay-endpoint: fraction unbound at 16 h

Can you look up the measured fraction unbound at 16 h of Cc1ccc([C@@H]2C[C@H](CN[C@H](C)c3cccc4ccccc34)Oc3ccccc32)cc1C(=O)O.Cl for me? < 0.01
